# SYSTEM NAME: ErbB2 (Homo sapiens)
# Construct: Kinases are expressed as either kinase domains or full length constructs; made in house
# Sequence (P04626 23-1255, species assumed): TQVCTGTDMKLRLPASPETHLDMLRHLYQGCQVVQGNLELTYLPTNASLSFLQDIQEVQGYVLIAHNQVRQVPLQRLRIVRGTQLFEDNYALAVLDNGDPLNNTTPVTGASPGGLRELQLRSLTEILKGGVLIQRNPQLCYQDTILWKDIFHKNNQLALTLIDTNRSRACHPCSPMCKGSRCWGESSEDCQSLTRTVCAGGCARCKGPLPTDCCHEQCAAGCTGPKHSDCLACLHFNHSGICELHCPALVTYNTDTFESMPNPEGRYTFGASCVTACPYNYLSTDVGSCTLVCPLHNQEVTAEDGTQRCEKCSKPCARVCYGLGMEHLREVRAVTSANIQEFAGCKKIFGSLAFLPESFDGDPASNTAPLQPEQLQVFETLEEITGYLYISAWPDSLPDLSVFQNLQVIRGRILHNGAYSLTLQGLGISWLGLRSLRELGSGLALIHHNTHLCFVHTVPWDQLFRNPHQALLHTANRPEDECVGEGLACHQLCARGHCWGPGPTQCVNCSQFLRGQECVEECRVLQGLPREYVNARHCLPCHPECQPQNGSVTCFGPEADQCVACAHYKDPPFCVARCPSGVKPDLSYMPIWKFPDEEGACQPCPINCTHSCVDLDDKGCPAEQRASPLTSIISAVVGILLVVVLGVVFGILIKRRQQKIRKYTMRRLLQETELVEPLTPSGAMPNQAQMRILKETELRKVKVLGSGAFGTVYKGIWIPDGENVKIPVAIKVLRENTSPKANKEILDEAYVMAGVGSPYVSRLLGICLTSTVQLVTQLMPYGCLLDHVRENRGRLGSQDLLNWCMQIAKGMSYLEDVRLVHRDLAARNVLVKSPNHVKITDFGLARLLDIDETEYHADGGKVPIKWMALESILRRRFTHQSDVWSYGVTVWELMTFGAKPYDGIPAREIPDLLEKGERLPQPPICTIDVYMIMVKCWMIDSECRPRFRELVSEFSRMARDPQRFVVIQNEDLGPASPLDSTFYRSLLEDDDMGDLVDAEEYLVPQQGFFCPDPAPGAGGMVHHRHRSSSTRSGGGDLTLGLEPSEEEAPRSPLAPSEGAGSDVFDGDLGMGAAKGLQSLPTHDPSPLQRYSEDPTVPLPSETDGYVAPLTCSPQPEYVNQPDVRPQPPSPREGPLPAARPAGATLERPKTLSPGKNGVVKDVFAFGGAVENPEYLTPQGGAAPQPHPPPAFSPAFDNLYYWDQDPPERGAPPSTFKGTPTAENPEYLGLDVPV
# METHOD SUMMARY: Kinase inhibition assay (33P transfer), ErbB2
# Format: biochemical
# ASSAY CONTEXT: read-out: ErbB2-2
pIC50: −log10 of the molar value.
MEASURED PROPERTY: pIC50

(Q) Consider the molecule shown here: COC(=O)c1sccc1Nc1ncnc(N2CCCc3cc(C)ccc32)n1 What is its recorded pIC50?
(A) < 4.93

(Q) Moving on to COc1ccc(N(C)c2ncnc(-n3c(N)nc4ccccc43)n2)cc1
(A) < 4.89

(Q) Moving on to Cc1ccc(Cl)cc1Nc1ncnc(Nc2cc(Cl)ccc2C)n1
(A) 4.90 to 5.01

(Q) Moving on to COc1ccc(CNc2nc3ccccc3n2-c2ncnc(Nc3cc(OC)c(OC)c(OC)c3)n2)cc1
(A) < 5.06

(Q) Moving on to COc1cc(Nc2ncnc(Nc3cccc(CC(=O)O)c3)n2)cc(OC)c1OC
(A) > 6.01

(Q) Moving on to COc1ccc(CNc2ncnc(Nc3cc(-c4ccco4)[nH]n3)n2)cc1OC
(A) 5.05 to 5.21

(Q) Moving on to CN(c1cccc(Cl)c1)c1ncnc(Nc2cccc(Cn3ccnn3)c2)n1
(A) > 5.99

(Q) Moving on to COc1cc(Nc2ncnc(Nc3ccc(Cl)cc3)n2)cc(OC)c1OC
(A) 5.21 to 5.99

(Q) Moving on to COc1cc(Nc2ncnc(Nc3cccc4ccccc34)n2)cc(OCCN2CCOCC2)c1OC
(A) 5.32 to 6.10

---

Recorded pIC50 by entry
# SYSTEM NAME: IGFR-1 (Homo sapiens)
# Construct: Kinases are expressed as either kinase domains or full length constructs; made in house
# Sequence (P08069 31-1367): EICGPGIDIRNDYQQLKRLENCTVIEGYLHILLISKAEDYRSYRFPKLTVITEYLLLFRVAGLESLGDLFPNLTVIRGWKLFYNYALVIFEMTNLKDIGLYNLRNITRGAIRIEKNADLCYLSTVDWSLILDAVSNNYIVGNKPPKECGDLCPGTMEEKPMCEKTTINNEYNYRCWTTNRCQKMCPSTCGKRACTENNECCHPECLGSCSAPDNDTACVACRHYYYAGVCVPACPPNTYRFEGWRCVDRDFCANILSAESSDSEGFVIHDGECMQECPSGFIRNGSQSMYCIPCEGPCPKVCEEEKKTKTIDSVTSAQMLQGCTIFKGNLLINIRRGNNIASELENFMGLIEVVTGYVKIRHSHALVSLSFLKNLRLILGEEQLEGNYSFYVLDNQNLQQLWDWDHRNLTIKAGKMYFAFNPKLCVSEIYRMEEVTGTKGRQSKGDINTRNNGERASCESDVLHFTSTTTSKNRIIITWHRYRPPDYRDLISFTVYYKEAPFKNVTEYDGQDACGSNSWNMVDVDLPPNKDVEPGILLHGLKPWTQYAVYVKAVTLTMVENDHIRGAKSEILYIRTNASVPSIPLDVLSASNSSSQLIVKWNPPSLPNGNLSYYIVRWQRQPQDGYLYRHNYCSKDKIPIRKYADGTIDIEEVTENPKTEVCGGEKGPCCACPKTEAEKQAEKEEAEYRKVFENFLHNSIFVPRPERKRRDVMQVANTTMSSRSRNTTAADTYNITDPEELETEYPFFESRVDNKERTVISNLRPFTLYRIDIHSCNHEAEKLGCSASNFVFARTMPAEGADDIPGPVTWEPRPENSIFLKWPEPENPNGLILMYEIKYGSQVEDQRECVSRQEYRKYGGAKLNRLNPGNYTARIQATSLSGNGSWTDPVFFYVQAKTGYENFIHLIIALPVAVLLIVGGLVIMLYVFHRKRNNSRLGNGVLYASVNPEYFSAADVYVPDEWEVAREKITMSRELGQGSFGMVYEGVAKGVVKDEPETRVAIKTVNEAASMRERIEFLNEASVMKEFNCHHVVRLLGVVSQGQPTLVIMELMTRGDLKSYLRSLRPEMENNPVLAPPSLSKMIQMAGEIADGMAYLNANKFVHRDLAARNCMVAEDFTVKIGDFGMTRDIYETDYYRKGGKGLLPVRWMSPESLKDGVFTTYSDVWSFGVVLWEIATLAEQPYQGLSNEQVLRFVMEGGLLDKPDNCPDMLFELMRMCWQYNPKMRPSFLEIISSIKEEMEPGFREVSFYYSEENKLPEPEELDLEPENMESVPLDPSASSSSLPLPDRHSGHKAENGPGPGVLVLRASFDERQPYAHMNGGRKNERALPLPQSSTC
# METHOD SUMMARY: Kinase inhibition assay (33P transfer), IGFR-1
# Assay type: biochemical
# ASSAY CONTEXT: Table 2, kinase inhibition class
pIC50: −log10 of the molar value.

Solved cases below.
SMILES NOTATION	pIC50
COc1cc(Nc2ncnc(Nc3ccc(C(=O)O)cc3)n2)cc(OC)c1OC	5.06 to 5.22
COc1cc(Nc2ncnc(Nc3cccc(OCc4ccccc4)c3)n2)cc(OC)c1OC	< 5.01
Clc1cccc(Nc2ncnc(-c3cccs3)n2)c1	< 4.81
NC(=O)c1cccc(Nc2ncnc(-c3cccs3)n2)c1	< 4.82
COc1cc(Nc2ncnc(Nc3cc(C)c(O)cc3C)n2)cc(OC)c1OC	5.06 to 5.22

(Q) Consider the molecule shown here: COc1ccc(Nc2ncnc(-c3ccccc3)n2)cc1 What is its recorded pIC50?
(A) < 4.79

(Q) Moving on to COc1cc(Nc2ncnc(Nc3ccc(OCc4ccccc4)cc3)n2)cc(OC)c1
(A) < 4.98

(Q) Moving on to c1csc(-c2ncnc(Nc3ccc4c(c3)OCO4)n2)c1
(A) < 4.82

(Q) Moving on to COc1cc(Nc2ncnc(Cl)n2)cc(OC)c1OC
(A) < 4.82

---

Record type: IC50 measurement. Applies to: ErbB2 (Homo sapiens)

SMILES NOTATION	SYSTEM NAME	IC50
COC(=O)c1ccc(-c2cc(Nc3ncnc(Nc4ccc(N5CCOCC5)cc4)n3)[nH]n2)cc1	ErbB2 (Homo sapiens)	847 to 5080 nM
COc1cc(Nc2ncnc(Nc3cc(Cl)ccc3C)n2)cc(OC)c1OC	ErbB2 (Homo sapiens)	< 995 nM

(Q) Consider the compound shown here: Nc1ncnc(Nc2ccc3c(cnn3Cc3ccccc3)c2)n1 What is its recorded IC50?
(A) 1260 to 7560 nM

(Q) Moving on to COc1ccc(Nc2ncnc(Nc3cc(-c4ccc(C)cc4)n[nH]3)n2)c(C)c1
(A) 1030 to 6190 nM
